# Tested target: vanilloid receptor 1 (VR1/TRPV1 receptor) (Homo sapiens, UniProt Q8NER1)
# Construct: expressed in transfected cells; host or cells: CHO K1 cells (ECACC), stably transfected
# Sequence (Q8NER1 whole entry): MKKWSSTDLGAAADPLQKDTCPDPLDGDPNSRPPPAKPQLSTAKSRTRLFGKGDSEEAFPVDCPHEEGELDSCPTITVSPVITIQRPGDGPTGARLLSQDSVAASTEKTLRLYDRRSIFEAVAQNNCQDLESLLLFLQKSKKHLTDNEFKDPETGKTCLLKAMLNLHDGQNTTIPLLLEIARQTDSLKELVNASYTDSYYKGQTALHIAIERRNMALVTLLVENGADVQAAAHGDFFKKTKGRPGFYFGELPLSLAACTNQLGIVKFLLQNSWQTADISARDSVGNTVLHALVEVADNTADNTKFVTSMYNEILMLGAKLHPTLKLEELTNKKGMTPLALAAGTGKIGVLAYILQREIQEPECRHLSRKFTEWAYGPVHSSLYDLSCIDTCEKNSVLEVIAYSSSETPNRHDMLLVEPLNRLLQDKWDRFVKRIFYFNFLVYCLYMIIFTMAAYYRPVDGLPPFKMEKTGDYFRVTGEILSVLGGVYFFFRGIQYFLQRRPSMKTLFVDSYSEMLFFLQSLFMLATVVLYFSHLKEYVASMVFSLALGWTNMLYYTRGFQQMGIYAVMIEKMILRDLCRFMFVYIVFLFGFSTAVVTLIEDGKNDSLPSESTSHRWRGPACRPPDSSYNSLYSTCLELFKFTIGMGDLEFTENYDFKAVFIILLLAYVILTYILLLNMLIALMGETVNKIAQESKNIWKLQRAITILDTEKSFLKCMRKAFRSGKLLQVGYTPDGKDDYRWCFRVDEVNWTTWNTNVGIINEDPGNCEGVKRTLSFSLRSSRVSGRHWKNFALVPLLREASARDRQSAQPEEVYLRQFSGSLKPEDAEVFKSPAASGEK
# Assay text: Functional testing on vanilloid receptor 1: FLIPR Ca2+ influx assay against capsaicin (Cap) in transfected CHO K1 cells (pharmacological method II); on (f) Ki (human being) [nM] Cap: 100 nM capsaicin
# Assay type: cell-based
# Test settings: read-out: (f) Ki (human being) [nM] Cap
Recorded endpoint: Ki (nM)

CC(CO)(CO)c1ccc(NC(=O)NCc2cc(C(F)(F)F)nn2-c2cccc(Cl)c2)cc1F    117
COc1cccc(-n2nc(C(F)(F)F)cc2CNC(=O)C(C)c2ccc(C3(O)CC3)c(F)c2)c1 (stereo not shown)    22
C[C@@H](C(=O)NCc1cc(C(F)(F)F)nn1-c1cccc(Cl)c1)c1ccc(COCCO)c(F)c1    5
CC(C)(C)c1cc(CNC(=O)Nc2ccc(C(C)(CO)CO)c(F)c2)n(-c2cccc(Cl)c2)n1    84
CN(C)c1cccc(-n2nc(C(F)(F)F)cc2CNC(=O)Nc2ccc(CO)c(F)c2)c1    25

A. CC(C(=O)NCc1cc(C(C)(C)C)nn1-c1cccc(F)c1)c1ccc(COCCO)c(F)c1 (stereo not shown)
B. O=C(NCc1cc(C(F)(F)F)nn1-c1ccc(Cl)cc1)Nc1ccc(CO)c(F)c1
Of A and B , whose reported Ki is the larger number? Your choice should be expressed through its label.
A

---

# Tested target: vanilloid receptor 1 (VR1/TRPV1 receptor) (Homo sapiens, UniProt Q8NER1)
# Construct: expressed in transfected cells; host or cells: CHO K1 cells (ECACC), stably transfected
# Assay text: Functional testing on vanilloid receptor 1: FLIPR Ca2+ influx assay against capsaicin (Cap) in transfected CHO K1 cells (pharmacological method II); on (f) Ki (human being) [nM] Cap: 100 nM capsaicin
# Format: cell-based
# Test settings: read-out: (f) Ki (human being) [nM] Cap
Recorded endpoint: Ki (nM)

CC(C(=O)NCc1cc(C(F)(F)F)nn1-c1cccc(F)c1)c1ccc(COCCO)c(F)c1 (centres unmarked) [A122]    45
C[C@@H](C(=O)NCc1cc(C(F)(F)F)nn1-c1cccc(Cl)c1)c1ccc(CO)c(F)c1 [A35]    1
C[C@H](C(=O)NCc1cc(C(F)(F)F)nn1-c1cccc(Cl)c1)c1ccc(CO)c(F)c1 [A34]    37

1. CC(C)(C)c1cc(CNC(=O)Nc2ccc(C3(O)COC3)cc2)n(-c2cccc(Cl)c2)n1 [A107]
2. Cc1cc(C)cc(-n2nc(C(F)(F)F)cc2CNC(=O)Nc2ccc(CO)c(F)c2)c1 [A73]
Between the entries labelled 1 and 2 , which has a larger Ki value on record? The response must carry the label of the picked entry.
1

1. CC(C(=O)NCc1cc(C(F)(F)F)nn1-c1ccc(F)cc1)c1ccc(CO)c(F)c1 (centres unmarked) [A46]
2. COc1cccc(-n2nc(C(F)(F)F)cc2CNC(=O)C(C)c2ccc(CO)c(F)c2)c1 (centres unmarked) [A43]
Smaller Ki value? Options are 1 and 2 Pick one and reply with its label.
2
(2: 21 nM, 1: 46 nM)

---

# Tested target: vanilloid receptor 1 (VR1/TRPV1 receptor) (Homo sapiens, UniProt Q8NER1)
# Construct: expressed in transfected cells; host or cells: CHO K1 cells (ECACC), stably transfected
# Assay text: Functional testing on vanilloid receptor 1: FLIPR Ca2+ influx assay against capsaicin (Cap) in transfected CHO K1 cells (pharmacological method II); on (f) Ki (human being) [nM] Cap: 100 nM capsaicin
# Format: cell-based
# Test settings: read-out: (f) Ki (human being) [nM] Cap
Recorded endpoint: Ki (nM)

COCc1cccc(-n2nc(C(F)(F)F)cc2CNC(=O)Nc2ccc(CO)c(F)c2)c1    53
COc1c(F)cc(C(C)C(=O)NCc2cc(C(C)(C)C)nn2-c2cccc(Cl)c2)cc1F (centres unmarked)    2

a. COc1c(F)cc(NC(=O)NCc2cc(C(F)(F)F)nn2-c2cccc(Cl)c2)cc1F
b. O=C(NCc1cc(C(F)(F)F)nn1-c1cccc(Cl)c1)Nc1ccc(CO)c(F)c1
# min-compare on Ki between a and b Indicate which entry you chose by stating its label.
b
(b: 7 nM, a: 55 nM)

I. COCCOc1ccc(NC(=O)NCc2cc(C(F)(F)F)nn2-c2cccc(Cl)c2)cc1F
II. CC(C)(C)c1cc(CNC(=O)Nc2ccc(CO)c(Cl)c2)n(-c2cccc(Cl)c2)n1
III. CC(C(=O)NCc1cc(C(F)(F)F)nn1-c1cccc(Cl)c1)c1ccc(COCCO)c(F)c1 (centres unmarked)
IV. CC(C)(C)c1cc(CNC(=O)Nc2ccc(CO)c(F)c2)n(-c2cccc(F)c2)n1
Order the records by Ki, with each subsequent value no larger than the one before. Your task in answering is to list the labels in the requested order.
I, III, IV, II

P. O=C(Cc1ccc(COCCO)c(F)c1)NCc1cc(C(F)(F)F)nn1-c1cccc(Cl)c1
Q. CC(C(=O)NCc1cc(C(F)(F)F)nn1-c1ccc(F)c(F)c1)c1ccc(CO)c(F)c1 (centres unmarked)
R. Cc1ccc(C)c(-n2nc(C(F)(F)F)cc2CNC(=O)Nc2ccc(CO)c(F)c2)c1
S. COc1c(F)cc(C(C)C(=O)NCc2cc(C3CC3)nn2-c2cccc(Cl)c2)cc1F (centres unmarked)
T. Cc1cccc(-n2nc(C(F)(F)F)cc2CNC(=O)Nc2ccc(CO)c(F)c2)c1C
Kindly order the items shown according to Ki, from the highest value down. Form field (ranking): labels in requested order.
P, R, Q, T, S

I. COc1ccc(Cl)cc1-n1nc(C(F)(F)F)cc1CNC(=O)Nc1ccc(CO)c(F)c1
II. Cc1cccc(-n2nc(C(F)(F)F)cc2CNC(=O)C(C)c2ccc(COCCO)c(F)c2)c1 (centres unmarked)
III. COc1c(F)cc(C(C)C(=O)NCc2cc(C(F)(F)F)nn2-c2ccc(F)c(Cl)c2)cc1F (centres unmarked)
IV. CC(C)(C)c1cc(CNC(=O)Nc2ccc(CO)c(F)c2)n(-c2cccc(Cl)c2)n1
// ranking: key=Ki, reverse=True I'd appreciate it if you listed the labels in the requested order.
I, II, III, IV

A. COc1ccc(-n2nc(C(F)(F)F)cc2CNC(=O)Nc2ccc(CO)c(F)c2)cc1C
B. O=C(NCc1cc(C(F)(F)F)nn1-c1cccc(Cl)c1)Nc1ccc(COCCO)c(F)c1
// task: argmin of Ki over [ A , B ] Please reply using the label of the selected record.
B
(B: 40 nM, A: 63 nM)

I. O=C(NCc1cc(C(F)(F)F)nn1-c1cccc(Cl)c1)Nc1ccc(CO)cc1
II. C[C@H](C(=O)NCc1cc(C(F)(F)F)nn1-c1cccc(Cl)c1)c1ccc(COCCO)c(F)c1
Endpoint returns the identifier whose Ki is numerically larger, either I or II . Please respond with the label that marks your chosen entry.
II

P. O=C(NCc1cc(C(F)(F)F)nn1-c1cccc(Cl)c1)Nc1ccc(CCO)c(F)c1
Q. CC(C(=O)NCc1cc(C(F)(F)F)nn1-c1cccc(F)c1)c1ccc(CCO)c(F)c1 (centres unmarked)
Which entry shows the lesser value of Ki here, P or Q ? // return label of chosen record
P
(P: 26 nM, Q: 40 nM)

I. Cc1ccccc1-n1nc(C(F)(F)F)cc1CNC(=O)Nc1ccc(CO)c(F)c1
II. O=C(NCc1cc(C(F)(F)F)nn1-c1cc(F)cc(F)c1)Nc1ccc(CO)c(F)c1
Which gives the smaller Ki number: I or II ? Answer with the label corresponding to your selection.
II
(II: 9 nM, I: 45 nM)

---

# Tested target: vanilloid receptor 1 (VR1/TRPV1 receptor) (Homo sapiens)
# Construct: expressed in transfected cells; host or cells: CHO K1 cells (ECACC), stably transfected
# Assay text: Functional testing on vanilloid receptor 1: FLIPR Ca2+ influx assay against capsaicin (Cap) in transfected CHO K1 cells (pharmacological method II); on (f) Ki (human being) [nM] Cap: 100 nM capsaicin
# Type: cell-based
# Test settings: @ 5µM; human VR1 in CHO K1 cells; capsaicin; relative to maximum inhibition with 10 µM capsazepine; read-out: inhibition (as a percentage), printed in column (f) Ki (human being) [nM] Cap
Recorded endpoint: inhibition at 5 µM (%)

CC(CO)(CO)c1ccc(NC(=O)NCc2cc(C(F)(F)F)nn2-c2cccc(Cl)c2)cc1    26
CC(C)(C)c1cc(CNC(=O)Nc2ccc(C(C)(CO)CO)cc2)n(-c2cccc(Cl)c2)n1    35
O=C(NCc1cc(C(F)(F)F)nn1-c1cccc(Cl)c1)Nc1ccc(C(CO)CO)c(F)c1    50

P. O=C(NCc1cc(C(F)(F)F)nn1-c1cccc(Cl)c1)Nc1ccc(C(O)(CO)CO)cc1
Q. CC(C)(C)c1cc(CNC(=O)Nc2ccc(C(O)(CO)CO)cc2)n(-c2cccc(Cl)c2)n1
Which record would sort first by descending inhibition at 5 µM, P or Q ? Which one? Tell me its label.
Q
